target: his-galectin-3 (Homo sapiens); construct: purchased Abcam; assay: TR-FRET assay (in vitro galectin-3 binding inhibitory activity test); settings: Table 1; compound at 20 μM; 60 nM his-galectin-3, 15 nM biotin-ASF; read-out: % Inhibitory activity (at 20 μM)
Sequence (P17931 whole entry): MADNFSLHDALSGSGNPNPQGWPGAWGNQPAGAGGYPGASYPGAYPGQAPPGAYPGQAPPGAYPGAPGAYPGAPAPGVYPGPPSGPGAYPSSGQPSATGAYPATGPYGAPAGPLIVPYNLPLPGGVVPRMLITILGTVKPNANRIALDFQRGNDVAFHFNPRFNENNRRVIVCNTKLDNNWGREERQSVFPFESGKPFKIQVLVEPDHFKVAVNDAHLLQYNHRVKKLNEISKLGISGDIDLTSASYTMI

smiles-record	inhibition at 20 µM
OC[C@H]1O[C@@]2(CCCCO2)[C@H](OCc2nn[nH]n2)[C@@H](n2cc(-c3cc(F)c(F)c(F)c3)nn2)[C@H]1O	50 to 75%
O=C(N[C@@H]1CCO[C@]12O[C@H](CO)[C@H](O)[C@H](n1cc(-c3cc(F)c(F)c(F)c3)nn1)[C@H]2O)c1cccc(F)c1	< 25%
COc1cccc(C(=O)O[C@@H]2[C@@H](n3cc(-c4cc(F)c(F)c(F)c4)nn3)[C@@H](O)[C@@H](CO)O[C@@]23CCCO3)c1	25 to 50%
O=C(O[C@@H]1[C@@H](n2cc(-c3cc(F)c(F)c(F)c3)nn2)[C@@H](O)[C@@H](CO)O[C@@]12CCCO2)c1ncccc1F	25 to 50%

FYI, the data here is from patent US20250026778A1.
